Hello, the source for this data is patent US8859653B2, in case you need it.

// reported octanol/water partition coefficient (log P) per item
Assay: octanol/water partition coefficient (log P) by high performance liquid chromatography according to JIS Z 7260-117 (2006)
Type: physicochemical
property_measured: octanol/water partition coefficient (log P)

[[record]]
input_smiles = "CCCN(Sc1nc2ccccc2s1)C(C)(C)C"
recorded_number = 5.3

[[record]]
input_smiles = "CC(C)N(Sc1nc2ccccc2s1)C(C)(C)C"
recorded_number = 5.1

[[record]]
input_smiles = "CN(Sc1nc2ccccc2s1)C(C)(C)C"
recorded_number = 4.5

[[record]]
input_smiles = "CCCCN(Sc1nc2ccccc2s1)C(C)(C)C"
recorded_number = 5.8

[[record]]
input_smiles = "CCN(Sc1nc2ccccc2s1)C(C)(C)C"
recorded_number = 4.9

